Quick reference for protein stability index among some sequences
# protocol_notes: protein stability index of a GFP-peptide fusion (yeast GPS) (PSI 1-4); higher = more stable; sorted into four equal gates, so the index is relative within each strain
# details: ubr1∆

| input_sequence | protein stability index |
| --- | --- |
| MSLTTAAPLLALLRENQ [RPN2] | 3.05 |
| KLLDDNPTEFDWPTYVD [SRB8] | 2.99 |
| VSNNEANTPSIPTNPVD [SWI3] | 3.08 |
| KSRPDRPKPVSPPCYII [SNF5] | 2.95 |
| NNSGNDNNNTTNNDSNN [MED2] | 3.09 |
| QLKAEEKKILNQFLKIK [SMC1] | 2.99 |
| ATPPLKRFKDMEYLSGG [SMC1] | 3.01 |
| LESEIASSSAKLIEKKS [SMC2] | 3 |

###

# protocol_notes: protein stability index of a GFP-peptide fusion (yeast GPS) (PSI 1-4); higher = more stable; sorted into four equal gates, so the index is relative within each strain
# details: san1∆

| input_sequence | protein stability index |
| --- | --- |
| NGNLTSNQLISNYAASN [SWI1] | 2.98 |
| PLLRKVVDRESDIPKTT [PRE4] | 1.87 |
| PTLGERLDNLQDIKKAK [DSN1] | 2.71 |

###

# protocol_notes: protein stability index of a GFP-peptide fusion (yeast GPS) (PSI 1-4); higher = more stable; sorted into four equal gates, so the index is relative within each strain
# details: pdr5∆
observed_property: protein stability index

| input_sequence | observed_property | observed_measurement |
| --- | --- | --- |
| LMEIHNILKVDSNSSSS [RGR1] | protein stability index | 2.67 |
| KTAKEVAGAIRAGIIIA [RPS2] | protein stability index | 3.16 |
| EFDEQYGTRPLVLPPVV [SNF2] | protein stability index | 2.69 |
| FDNVASVFMPLIFIACN [ECM29] | protein stability index | 2.72 |
| RAQHVKKLATRPKCGDC [RPL34A] | protein stability index | 3.06 |
| LRSTIANLLQINVDNDP [YML103C/NUP188] | protein stability index | 1.4 |
| ALIDTEFANFELKDICS [YML103C/NUP188] | protein stability index | 2.49 |
| GKRQLMKAVGEYMKRHP [SEC65] | protein stability index | 3.31 |
| KKIVDSKKLNLKIHQSH [YMR129W/POM152] | protein stability index | 2.7 |
| VEYLDVNEENDSYIALY [RET1] | protein stability index | 3.08 |
| KLLFQELLSMNIAPRLR [RET1] | protein stability index | 1.31 |
| AMLINLILRDFLNNGEV [RPN3] | protein stability index | 2.56 |
| TTQGGLTSVTRHGFNRS [RPO21] | protein stability index | 3.04 |
| KFNNTQRESQIGAAELN [SNF12] | protein stability index | 3.03 |
| DYMYENGKLTSANERLF [YML031W/NDC1] | protein stability index | 3.28 |
| LTLLERKWVIFITKHLP [NUT1] | protein stability index | 1.68 |
| LAANYLNIKPLLDAGCK [SKP1] | protein stability index | 2.19 |
| LVCGNDSSYQDIFAVNL [RET1] | protein stability index | 2.04 |
| STNHPDYDVSKKASEIS [SRP14] | protein stability index | 3 |
| AQPSVQSSFAGTWSAKE [FAS2] | protein stability index | 3.13 |
| IRNIVEAAAVRDLSEAS [RPS26A] | protein stability index | 2.39 |

###

We begin with a simple list: items and their reported protein stability index.
# protocol_notes: protein stability index of a GFP-peptide fusion (yeast GPS) (PSI 1-4); higher = more stable; sorted into four equal gates, so the index is relative within each strain
# details: doa10∆

| input_sequence | protein stability index |
| --- | --- |
| KNTSSMDFLNSMENTPK [GAL11] | 1.83 |
| EINSEMCHIVRKFHELN [GRR1] | 2.4 |
| IEKFEQVPDSLDDQIFV [RPN6] | 3.31 |
| DGTGVRVIVAGTLDINP [FAS1] | 2.36 |
| KKLLINKDASLALQRGA [DPB4] | 2.62 |
| PNLNMKYRKRQLVTREA [FAS2] | 3.68 |
| LVAIFGGQGNTDDYFEE [FAS1] | 3.15 |

###

# protocol_notes: protein stability index of a GFP-peptide fusion (yeast GPS) (PSI 1-4); higher = more stable; sorted into four equal gates, so the index is relative within each strain
# details: ubr1∆
Parameter threshold = 3. Response is true (1) when protein stability index meets or exceeds it, else false (0).

| input_sequence | category |
| --- | --- |
| VGEEETSQKMKKMVYVL [SRP54] | true (1) |
| YDDEQNTSAQHVESDKI [IRR1] | true (1) |
| VEWINPSRRERRREQTT [ISW2] | true (1) |
| GVHTGQFIYAGKKASLN [RPL2A] | true (1) |
| RTTTNTTAEPKAKRAKT [TAF14] | false (0) |

###

# protocol_notes: protein stability index of a GFP-peptide fusion (yeast GPS) (PSI 1-4); higher = more stable; sorted into four equal gates, so the index is relative within each strain
# details: ubr1∆
The following sequences are shown together with reported protein stability index values.

| input_sequence | protein stability index |
| --- | --- |
| SLNLQYVNYEISTAKAW [YML103C/NUP188] | 2.69 |
| VENIERVVMMKYDRKVP [RPO21] | 2.36 |
| QIFKVAGENAPSIVFID [RPT2] | 1.33 |
| SHVENLEEKLYQMQSNY [YIL149C/MLP2] | 2.86 |
| PWGDYLQLETPAEVGRA [BRR2] | 1.19 |
| GSVFNMNGNTNANTVFA [YOR098C/NUP1] | 2.44 |
| ENISLAEFILKNRSTIF [BRR2] | 1.88 |

###

# protocol_notes: protein stability index of a GFP-peptide fusion (yeast GPS) (PSI 1-4); higher = more stable; sorted into four equal gates, so the index is relative within each strain
# details: ubr1∆

| input_sequence | protein stability index |
| --- | --- |
| DDLIAEENPIMQTALRR [QCR7] | 3.06 |
| MSEEQDPLLAGLGETSG [RPT4] | 3.25 |
| HPPDFKRMLLSLSEFAR [SNF2] | 1.27 |
| TRTIKQNNFHVLIDLLN [RGR1] | 1.86 |
| TWSLILNECLKTIQINN [YML031W/NDC1] | 1.86 |

###

// values below are reported protein stability index
# protocol_notes: protein stability index of a GFP-peptide fusion (yeast GPS) (PSI 1-4); higher = more stable; sorted into four equal gates, so the index is relative within each strain
# details: doa10∆
observed_property: protein stability index

| input_sequence | observed_measurement |
| --- | --- |
| SDFISKLEYPHTDVSSS [RPN3] | 2.56 |
| KVAHTSYKRIYGEYPPT [PRE8] | 3.02 |
| MYILGMCVSKGNASLKY [YCG1] | 1.79 |
| SFVHGVVGQLFQIDNDN [SMC2] | 3.11 |
| DKLKDIVGQTSRTVTPA [ITC1] | 3.22 |
| SILVIVQKILPLSNEVF [SWI1] | 1.37 |
| CWPKDSRMRLIRQDVNL [PRP8] | 2.52 |
| NTSFSFTKPPANETDKR [YOR098C/NUP1] | 3.08 |
| TQKDSARVSPRNNVANK [YAR002W/NUP60] | 3.22 |
| ETHETNISNAKLANFFS [YAR002W/NUP60] | 3.03 |
| HAERDLALAETLKLRAR [SRP68] | 2.95 |
| KGSRQCRVCSSHTGLVR [RPS29B] | 2.67 |
| ESAPITAEDSWAVISAF [RPB2] | 3.17 |
| SKQPNSAIRKCVRVQLI [RPS23A] | 2.69 |
| ANRDDVKGRENELLLPS [RPC82] | 3.37 |
| NEIANSIIQSKQDCVDW [BRR2] | 2.61 |
| LNVVLDDAMEINGEDPA [SMX2] | 3.35 |
| LRRVEERFTKSKTLSLI [FAS1] | 2.31 |
| FNYVAVGDVSNLPYLDE [QCR2] | 3.2 |
| GQHKNNTSLNINGWKFE [SWP82] | 3.09 |
| DPLLSLYNFLHKYVLTL [RGR1] | 2.5 |
| TKKLIQKTVFDELCKLV [SRP54] | 1.1 |
| VKIGDIEKWTANLLPAR [RPS22A] | 2.19 |
| ALIDTEFANFELKDICS [YML103C/NUP188] | 2.12 |
| QENSSKIITLDLSNYAE [SMC1] | 3.13 |
| THNFKLSGVSNSMDMVD [RGR1] | 3.09 |
| DVTPADDLKQKKEELVE [RPO31] | 3.12 |
| KRYANHTQDIIGGMRVD [RET1] | 3.11 |
| NISRDFQSYIVSSLPGS [COR1] | 1.63 |
| IKIVYALTTIKGVGRRY [RPS18A] | 1.87 |
| IYLSRFLIKASVREINL [SSN8] | 1.83 |
| YLHQNWVLHRDLKPANI [SSN3] | 2.23 |
| SAKPTFSFSKSEEERKS [YOR098C/NUP1] | 1.96 |
| VKSLVDNMITGVTKGYK [RPL9A] | 2.75 |
| DFILSLLHHVSELDSND [YJL039C/NUP192] | 1.93 |
| DCQFWETWLGSQCRLHE [PRE2] | 2.22 |
| DVKTAEEASQLIEYMEN [NUT1] | 2.91 |
| TDSRTGQSTILVGSEIY [CDC53] | 2.77 |
| LNLDSEQTVEYMVSRAI [RPN3] | 3.32 |
| NKEMHTDLGKDIPFFPS [SSN2] | 2.34 |
| NGALDPKMGVSSSSLEC [RPO31] | 3.21 |
| KTDFAKIINKPNELSQI [RPC82] | 3.09 |
| IDLCHDFPHLTPKLQTQ [YCS4] | 2.6 |
| KQEQEEKIKSKKINRRN [YCG1] | 3.4 |
| PNIHQNLLPKKSAKTAK [HTA2] | 2.88 |
| IFGGAGGVPTTSFGQPQ [YOR098C/NUP1] | 1.57 |
